Tested on: brown skin surface lipid of the rats
Assay Summary: Antiseborrheic effect: browning of the shaved back of rats, visually assessed (half-back application, 14 days)
Type: in vivo, male Wistar rats
Assay Conditions: Conc. 1.0% in alcohol; (ΔP/Pk)·100
Measured Parameter: Sebum reduction (%)
The answer is to be given in %; state only the numeric part.

Entry under test: CCCCCCCCCCOc1ccc(C(=O)OCCO)cc1 . Its Sebum reduction was 98

# compound CCCCCCCCCCCCOc1ccc(C(=O)OCCOC)cc1 ; its Sebum reduction = 91

So for CCCCCCCCCCOc1ccc(C(=O)OCCOCCOC)cc1 , the logged Sebum reduction turned out to be 100

Looking up CCCCCCCCCCOc1ccc(C(=O)OCCOC)cc1 , I see its Sebum reduction listed as 100

The compound identified as CCCCCCCCCCOc1ccc(C(=O)OCCOCC)cc1 registered its Sebum reduction at 93

Reported Sebum reduction for CCCCCCCCCCOc1ccc(C(=O)OCCN(CC)CC)cc1 was 90

These measurements were taken from patent US4503244A.
